molecular target: GBA2 (Homo sapiens); assay: Determination of IC50 values for inhibition of GBA2 in cell lysate; format: biochemical; design: host or cells: HEK293T (lentiviral transduction, puromycin selection); used as cellular homogenate
pIC50: −log10 of the molar value.
Reported Metric: pIC50

# annotated cases, reported pIC50 shown
>  <Smiles Str>
C[C@@H]1[C@@H](O)[C@H](O)[C@@H](O)CN1CCc1ccsc1

>  <pIC50>
6.00 to 7.00

$$$$
>  <Smiles Str>
Cc1ccccc1CCN1C[C@H](O)[C@@H](O)[C@H](O)[C@H]1C

>  <pIC50>
6.00 to 7.00

$$$$
>  <Smiles Str>
COc1ccc(CCN2C[C@H](O)[C@@H](O)[C@H](O)[C@H]2C)c(F)c1

>  <pIC50>
6.00 to 7.00

$$$$
>  <Smiles Str>
CCCCOc1cc(F)c(CCN2C[C@H](O)[C@@H](O)[C@H](O)[C@H]2C)c(F)c1

>  <pIC50>
> 7.00

$$$$
>  <Smiles Str>
C[C@@H]1[C@@H](O)[C@H](O)[C@@H](O)CN1CCc1cc(F)ccc1F

>  <pIC50>
> 7.00

$$$$
>  <Smiles Str>
C[C@@H]1[C@@H](O)[C@H](O)[C@@H](O)CN1CCc1cccc(Cl)c1F

>  <pIC50>
> 7.00

$$$$
>  <Smiles Str>
CCCCOc1cc(F)c(CCN2C[C@H](O)[C@@H](O)[C@H](O)[C@@H]2C)c(F)c1

>  <pIC50>
6.00 to 7.00

$$$$

// next entry
Entry `C[C@@H]1[C@@H](O)[C@H](O)[C@@H](O)CN1CCc1ccc2c(c1)OCO2` — recorded pIC50 = > 7.00

###

Known pIC50 of a selection of compounds
Biological target: GBA2 (Homo sapiens, UniProt Q9HCG7)
Sequence (Q9HCG7 1-927): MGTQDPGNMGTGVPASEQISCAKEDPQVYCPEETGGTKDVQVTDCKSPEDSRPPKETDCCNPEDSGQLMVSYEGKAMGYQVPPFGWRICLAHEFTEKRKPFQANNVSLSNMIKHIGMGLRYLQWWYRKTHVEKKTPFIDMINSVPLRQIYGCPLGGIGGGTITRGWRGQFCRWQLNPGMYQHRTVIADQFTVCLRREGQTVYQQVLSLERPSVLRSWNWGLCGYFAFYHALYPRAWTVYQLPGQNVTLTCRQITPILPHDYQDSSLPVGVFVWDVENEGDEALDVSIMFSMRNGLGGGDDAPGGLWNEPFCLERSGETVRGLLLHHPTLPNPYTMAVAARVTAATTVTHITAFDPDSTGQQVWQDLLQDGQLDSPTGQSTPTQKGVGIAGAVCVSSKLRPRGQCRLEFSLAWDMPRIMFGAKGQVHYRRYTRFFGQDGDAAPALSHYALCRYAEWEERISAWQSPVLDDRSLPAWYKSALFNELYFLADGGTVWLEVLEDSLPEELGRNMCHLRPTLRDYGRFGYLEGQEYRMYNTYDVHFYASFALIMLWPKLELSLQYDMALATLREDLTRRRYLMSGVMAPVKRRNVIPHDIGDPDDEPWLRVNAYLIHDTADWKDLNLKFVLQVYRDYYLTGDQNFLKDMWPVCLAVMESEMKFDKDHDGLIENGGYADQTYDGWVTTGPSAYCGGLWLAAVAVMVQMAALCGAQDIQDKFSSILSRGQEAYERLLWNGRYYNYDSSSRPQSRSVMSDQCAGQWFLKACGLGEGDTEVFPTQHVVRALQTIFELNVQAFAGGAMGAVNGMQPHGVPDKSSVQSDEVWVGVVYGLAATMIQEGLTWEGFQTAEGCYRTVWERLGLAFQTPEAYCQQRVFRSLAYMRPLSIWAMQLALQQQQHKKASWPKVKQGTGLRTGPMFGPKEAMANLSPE
Test: Determination of IC50 values for inhibition of GBA2 in cell lysate
Assay type: biochemical
Parameters: host or cells: HEK293T (lentiviral transduction, puromycin selection); used as cellular homogenate
Details: cellular homogenate of HEK293T cells overexpressing human GBA2, 250 μM 4-methylumbelliferone-β-D glucopyranoside, pH 5.5, 37° C., GCase inhibitor present; read-out: GBA2 IC50
pIC50: −log10 of the molar value.

>  <Smiles Str>
C[C@@H]1[C@@H](O)[C@H](O)[C@@H](O)CN1C[C@H]1CCN(c2cncnc2C(F)(F)F)C1

>  <pIC50>
> 7.00

$$$$
>  <Smiles Str>
Cc1ccccc1N1CCC[C@H](CN2C[C@H](O)[C@@H](O)[C@H](O)[C@H]2C)C1

>  <pIC50>
> 7.00

$$$$
>  <Smiles Str>
CC(C)[C@H]1CC[C@H](CN2C[C@H](O)[C@@H](O)[C@H](O)[C@H]2C)CC1

>  <pIC50>
> 7.00

$$$$
>  <Smiles Str>
C[C@@H]1[C@@H](O)[C@H](O)[C@@H](O)CN1CCCc1ccccc1

>  <pIC50>
> 7.00

$$$$
>  <Smiles Str>
C[C@@H]1[C@@H](O)[C@H](O)[C@@H](O)CN1CC1CCN(C(=O)Cc2ccccc2)CC1

>  <pIC50>
6.00 to 7.00

$$$$
>  <Smiles Str>
C[C@@H]1[C@@H](O)[C@H](O)[C@@H](O)CN1CCCc1ccsc1

>  <pIC50>
> 7.00

$$$$
>  <Smiles Str>
CO[C@H]1CC[C@H](CN2C[C@H](O)[C@@H](O)[C@H](O)[C@H]2C)CC1

>  <pIC50>
4.60 to 6.00

$$$$

Now look at this entry.
Note to self: pIC50 recorded for `C[C@@H]1[C@@H](O)[C@H](O)[C@@H](O)CN1C[C@@H]1CCCN(c2nc(C(F)(F)F)cs2)C1` was 6.00 to 7.00

Origin of values: patent US12612380B2
